Attribution: patent US9926297B2

target: human muscarinic M1 receptor (Homo sapiens); test: Alphascreen Surefire phospho-ERK1/2 functional assay, M1; type: cell-based; conditions: CHO, read-out: % Emax cf. ACh, M1, CHO cells stably expressing human M1; relative to ACh
Sequence (P11229 whole entry): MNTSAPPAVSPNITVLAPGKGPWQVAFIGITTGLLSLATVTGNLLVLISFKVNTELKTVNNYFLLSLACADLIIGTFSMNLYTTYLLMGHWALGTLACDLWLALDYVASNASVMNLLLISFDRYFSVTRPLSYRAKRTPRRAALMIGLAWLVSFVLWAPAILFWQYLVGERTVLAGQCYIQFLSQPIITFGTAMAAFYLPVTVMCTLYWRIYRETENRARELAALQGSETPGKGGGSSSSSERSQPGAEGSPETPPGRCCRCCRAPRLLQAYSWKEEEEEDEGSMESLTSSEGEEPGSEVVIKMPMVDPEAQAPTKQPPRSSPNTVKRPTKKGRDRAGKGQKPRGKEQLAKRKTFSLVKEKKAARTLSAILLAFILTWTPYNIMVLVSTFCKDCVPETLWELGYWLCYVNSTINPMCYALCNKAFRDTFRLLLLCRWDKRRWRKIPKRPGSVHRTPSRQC
Grouping rule (Emax): lo (below 40%), med (40% to below 80%), hi (80% or more)

{"molecule": "CCOC(=O)N1CCC2(CC(N3CCC(N4CCC[C@H]4C(F)(F)F)CC3)C2)C1 (single isomer, unassigned) [2-101 Isomer 2]", "study_system": "human muscarinic M1 receptor (Homo sapiens)", "class_label": "med"}
{"molecule": "CCOC(=O)N1CCC2(CC(N3CCC(c4nnco4)CC3)C2)C1 (single isomer, unassigned) [1-28 Isomer 2]", "study_system": "human muscarinic M1 receptor (Homo sapiens)", "class_label": "med"}
{"molecule": "CCOC(=O)N1CCC2(CC(N3CCC(N4C(=O)CC[C@@H]4CC)CC3)C2)C1 (single isomer, unassigned) [2-116 Isomer 2]", "study_system": "human muscarinic M1 receptor (Homo sapiens)", "class_label": "hi"}
{"molecule": "CCOC(=O)N1CCC2(CC(N3CCC([C@@H]4CCCN4c4nncs4)CC3)C2)C1 (single isomer, unassigned) [2-83 Isomer 2]", "study_system": "human muscarinic M1 receptor (Homo sapiens)", "class_label": "med"}
{"molecule": "CCOC(=O)N1CCC2(CC(N3CCC(c4cccc(OC)n4)CC3)C2)C1 (single isomer, unassigned) [3-13 Isomer 2]", "study_system": "human muscarinic M1 receptor (Homo sapiens)", "class_label": "hi"}
{"molecule": "CCOC(=O)N1CCC2(CC(N3CCC(C4CCCN4C(=O)C(F)(F)F)CC3)C2)C1 (single isomer, unassigned) [2-4 Isomer 2]", "study_system": "human muscarinic M1 receptor (Homo sapiens)", "class_label": "hi"}
{"molecule": "CCOC(=O)N1CCC2(CC(N3CCC([C@@H]4CCCN4c4ccncc4)CC3)C2)C1 (single isomer, unassigned) [2-80 Isomer 2]", "study_system": "human muscarinic M1 receptor (Homo sapiens)", "class_label": "hi"}
{"molecule": "COC(=O)N1CCC2(CC(N3CCC(C4CCCNC4=O)CC3)C2)C1 (single isomer, unassigned) [4-2 Isomer 4]", "study_system": "human muscarinic M1 receptor (Homo sapiens)", "class_label": "hi"}
{"molecule": "CCOC(=O)N1CCC2(CC(N3CCC([C@@H]4CCCN4C(=S)CC)CC3)C2)C1 (single isomer, unassigned) [2-58 Isomer 2]", "study_system": "human muscarinic M1 receptor (Homo sapiens)", "class_label": "med"}
{"molecule": "CCOC(=O)N1CCC2(CC(N3CCC([C@@H]4CCCN4C(=O)OCC(F)(F)F)CC3)C2)C1 (single isomer, unassigned) [2-48 Isomer 2]", "study_system": "human muscarinic M1 receptor (Homo sapiens)", "class_label": "lo"}
{"molecule": "CCOC(=O)N1CCC2(CC(N3CCC(N4C[C@H](F)C[C@@H]4C(=O)OC)CC3)C2)C1 (single isomer, unassigned) [2-134 Isomer 2]", "study_system": "human muscarinic M1 receptor (Homo sapiens)", "class_label": "lo"}
{"molecule": "CCOC(=O)N1CCC2(CC(N3CCC(c4nc(C)no4)CC3)C2)C1 (single isomer, unassigned) [1-29 Isomer 2]", "study_system": "human muscarinic M1 receptor (Homo sapiens)", "class_label": "med"}
{"molecule": "CCOC(=O)N1CCC2(CC(N3CCC(N4C(=O)OC[C@H]4C(C)C)CC3)C2)C1 (single isomer, unassigned) [2-120 Isomer 2]", "study_system": "human muscarinic M1 receptor (Homo sapiens)", "class_label": "hi"}
{"molecule": "CCOC(=O)N1CCC2(CC(N3CCC(n4nccn4)CC3)C2)C1 (single isomer, unassigned) [1-61 Isomer 2]", "study_system": "human muscarinic M1 receptor (Homo sapiens)", "class_label": "med"}
{"molecule": "CCOC(=O)N1CCC2(CC(N3CCC([C@@H]4C[C@H](F)CN4C(=O)CC)CC3)C2)C1 (single isomer, unassigned) [2-59 Isomer 2]", "study_system": "human muscarinic M1 receptor (Homo sapiens)", "class_label": "lo"}
{"molecule": "CCOC(=O)N1CCC2(CC(N3CCC(C4CCCCN4C(=O)CC)CC3)C2)C1 (single isomer, unassigned) [4-19 Isomer 2]", "study_system": "human muscarinic M1 receptor (Homo sapiens)", "class_label": "lo"}
{"molecule": "CCOC(=O)N1CCC2(CC(N3CCC([C@@H]4CCCN4C(=O)NC4(C)CCC4)CC3)C2)C1 (single isomer, unassigned) [2-35 Isomer 2]", "study_system": "human muscarinic M1 receptor (Homo sapiens)", "class_label": "hi"}
{"molecule": "CCOC(=O)N1CCC2(CC(N3CCC(N4CCCCCC4C(=O)OC)CC3)C2)C1 (single isomer, unassigned) [5-2 Isomer 2]", "study_system": "human muscarinic M1 receptor (Homo sapiens)", "class_label": "med"}
